target_system: T1, histidine-tagged human SIRPA v1 (Novoprotein) (human, UniProt P78324 31-370, limits assumed)
T1 construct: bought, soluble; also called huSIRPA; soluble huSIRPA; not shown: histidine tag
T1 sequence (P78324 31-370 limits assumed): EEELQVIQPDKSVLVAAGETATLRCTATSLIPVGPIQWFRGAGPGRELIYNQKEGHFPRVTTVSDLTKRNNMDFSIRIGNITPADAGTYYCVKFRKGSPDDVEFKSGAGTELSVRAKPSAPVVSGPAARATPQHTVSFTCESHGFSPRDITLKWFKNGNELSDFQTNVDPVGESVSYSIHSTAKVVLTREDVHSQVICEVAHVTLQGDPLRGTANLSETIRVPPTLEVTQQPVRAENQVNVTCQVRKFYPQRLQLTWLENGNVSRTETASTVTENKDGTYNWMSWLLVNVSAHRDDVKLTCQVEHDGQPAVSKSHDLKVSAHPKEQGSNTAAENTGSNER
test_protocol: BLI (Octet), antibody on anti-human IgG Fc sensor, His-huSIRPA in solution, single-curve 1:1 fit
assay_metric: Kd (nM)
The reply should contain only the number, in nM.

Which Kd reading was recorded for the binder 3F9-10 (antibody, human IgG1, V domains shown, also called mAb 3F9-10) VH: EVQLLESGGGLVQPGGSLRLSCAASGFTFSSYAMSWVRQAPGKGLEWVATISEYGGSYTYYAESVKGRFTISRDNSKNTLYLQMNSLRAEDTAVYYCARPPYDDYYGGFRYWGQGTLVTVSS VL: DIQLTQSPSSLSASVGDRVTITCRASKSVSSGGYSYMHWYQQKPGKAPKLLIYLASNLESGVPSRFSGSGSGTDFTLTISSVQPEDFATYYCQHNRELPSTFGQGTKLEIK ?
1.51

Query 3F9-15 (antibody, human IgG1, V domains shown, also called mAb 3F9-15) VH: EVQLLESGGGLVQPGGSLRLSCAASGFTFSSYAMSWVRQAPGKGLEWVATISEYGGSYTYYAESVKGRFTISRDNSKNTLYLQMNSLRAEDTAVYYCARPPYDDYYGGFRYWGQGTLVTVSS VL: DIQLTQSPSSLSASVGDRVTITCRASKSVSSGGYSYMHWYQQKPGKAPKLLIYLASNLESGVPSRFSGSGSGTDFTLTISSVQPEDFATYYCQHNRELPATFGQGTKLEIK next
6.28
